Where do the numbers come from? From patent US20210107874A1.

Assay: Quantitative determination of solubility of compound 5 (UPLC)
Assay type: physicochemical
Settings: aqueous acid solution (350 mM malic acid in water), 25 °C, aqueous buffer, thermodynamic from solid, Malic acid 350 mM in water, read-out: Solubility T = 1 Day
ASSAY METRIC: solubility at 1 day

## Task Can you share its solubility at 1 day? I mean this compound: COc1cc(NCCNC(=O)/C=C/C(C)(F)F)ccn1 [Compound 5]
## Result 129 mg/mL

====

Assay: PK studies of formulations, plasma by HPLC-MS/MS
Format: in vivo
Conditions: bovine, plasma, sc, 1.25 mg/kg, Form B62.5 (dimethyl acetamide, propylene glycol, water), Cattle, 1.25 mg/kg, read-out: Cmax
ASSAY METRIC: Cmax (ng/mL)
One number for each entry, in ng/mL.

## Task Can you share its Cmax? I mean this molecule: CCOc1cc(NCCNC(=O)/C=C/C(F)(F)F)ccn1 [Compound 4]
## Result 37.4

====

Assay: PK studies of formulations, plasma by HPLC-MS/MS
Format: in vivo
Details: bovine, plasma, sc, 0.5 mg/kg, pH 4.4, FormO50 (L-tartaric acid, NaOH up to pH 4.4, water), Cattle, 0.5 mg/kg, read-out: AUC
Procedure: The following formulations were prepared and administered to animals. Blood samples were collected at pre-defined time points and the amount of compound present in plasma at the time of sampling was determined by HPLC-MS/MS. Pharmacokinetic parameters were then calculated: Cmax, Tmax, Tlast, AUC. [table]
ASSAY METRIC: AUC (ng·h/mL)
Numbers only, in ng·h/mL.

## Task Can you share its AUC? I mean this compound: COc1cc(NCCNC(=O)/C=C/C(C)(F)F)ccn1
## Result 371

====

Assay: Solubility of synthesized tartrate salt and free base of compound 4
Type: physicochemical
Details: free base; read-out: solubility
ASSAY METRIC: solubility (µg/mL)
Give bare numbers, in µg/mL.

## Task Can you share its solubility? I mean this molecule: CCOc1cc(NCCNC(=O)/C=C/C(F)(F)F)ccn1
## Result 800

====

Experiment: Quantitative determination of solubility of compound 5 (UPLC)
Type: physicochemical
Conditions: aqueous acid solution (350 mM tartaric acid in water), 25 °C, aqueous buffer, thermodynamic from solid, Tartaric acid 350 mM in water, read-out: Solubility T = 3 Days Average
ASSAY METRIC: solubility at 3 days
In your response, the unit should come after the numeric value.

## Task Can you share its solubility at 3 days? I mean this compound: COc1cc(NCCNC(=O)/C=C/C(C)(F)F)ccn1 [Compound 5]
## Result 163 mg/mL

====

Assay: PK studies of formulations, plasma by HPLC-MS/MS
Assay type: in vivo
Settings: bovine, plasma, sc, 1.25 mg/kg, FormG62.5 (benzyl alcohol, ethyl alcohol 96%, polyethylene glycol 300), Cattle, 1.25 mg/kg, read-out: Cmax
ASSAY METRIC: Cmax (ng/mL)
Numbers only, in ng/mL.

## Task Can you share its Cmax? I mean this compound: CCOc1cc(NCCNC(=O)/C=C/C(F)(F)F)ccn1 [Compound 4]
## Result 12.5

====

Assay: PK studies of formulations, plasma by HPLC-MS/MS
Format: in vivo
Conditions: bovine, plasma, sc, 1.25 mg/kg, FormD62.5 (PEG 300, ethanol, Transcutol P), Cattle, 1.25 mg/kg, read-out: AUC
ASSAY METRIC: AUC (ng·h/mL)
Numbers only, in ng·h/mL.

## Task Can you share its AUC? I mean this compound: CCOc1cc(NCCNC(=O)/C=C/C(F)(F)F)ccn1
## Result 63.2

====

Experiment: PK studies of formulations, plasma by HPLC-MS/MS
Format: in vivo
Settings: bovine, plasma, sc, 1 mg/kg, pH 4.4, FormT50 (DL-Lactic acid, hydrochloric acid up to pH 4.4, water), Cattle, 1 mg/kg, read-out: Tmax
ASSAY METRIC: Tmax (min)
Give bare numbers, in min.

## Task Can you share its Tmax? I mean this compound: CCOc1cc(NCCNC(=O)/C=C/C(F)(F)F)ccn1
## Result 25.2

====

Assay: PK studies of formulations, plasma by HPLC-MS/MS
Type: in vivo
Settings: bovine, plasma, sc, 1.25 mg/kg, Form A50 (NMP, propylene glycol, water), Cattle, 1.25 mg/kg, read-out: AUC
ASSAY METRIC: AUC
In your response, the unit should come after the numeric value.

## Task Can you share its AUC? I mean this compound: CCOc1cc(NCCNC(=O)/C=C/C(F)(F)F)ccn1 [Compound 4]
## Result 204 ng·h/mL

====

Assay: PK studies of formulations, plasma by HPLC-MS/MS
Assay type: in vivo
Conditions: bovine, plasma, sc, 1.25 mg/kg, FormF62.5 (polyethylene glycol, 1-octanol, 2-pyrrolidone), Cattle, 1.25 mg/kg, read-out: Cmax
ASSAY METRIC: Cmax (µg/mL)
Answers are plain numbers, in µg/mL.

## Task Can you share its Cmax? I mean this molecule: CCOc1cc(NCCNC(=O)/C=C/C(F)(F)F)ccn1
## Result 0.0152

====

Test: Stability tests of solutions of compound 4 with equimolar acids in water
Type: physicochemical
Conditions: water with equimolar acid, pH 0.06, water, thermodynamic from solid, equimolar Sulfuric acid in water
ASSAY METRIC: solubility

## Task Can you share its solubility? I mean this molecule: CCOc1cc(NCCNC(=O)/C=C/C(F)(F)F)ccn1 [Compound 4]
## Result > 200 mg/mL

====

Experiment: PK studies of formulations, plasma by HPLC-MS/MS
Format: in vivo
Details: bovine, plasma, sc, 1.5 mg/kg, FormW100 (L-tartaric acid, propylene glycol 300 mg, benzylalcohol, water), Cattle, 1.5 mg/kg, read-out: Tmax
ASSAY METRIC: Tmax (min)
Give bare numbers, in min.

## Task Can you share its Tmax? I mean this compound: COc1cc(NCCNC(=O)/C=C/C(C)(F)F)ccn1 [Compound 5]
## Result 52.8

====

Assay: Quantitative determination of solubility of compound 5 (UPLC)
Format: physicochemical
Conditions: aqueous acid solution (350 mM oxoglutaric acid in water), 25 °C, aqueous buffer, thermodynamic from solid, Oxoglutaric acid 350 mM in water, read-out: Solubility T = 1 Day Average
Method: Compound 5 (120 mg) was weighed into shell vials and combined with acid (600 μl of a 350 mM solution of the respective acid in water).
ASSAY METRIC: solubility at 1 day

## Task Can you share its solubility at 1 day? I mean this compound: COc1cc(NCCNC(=O)/C=C/C(C)(F)F)ccn1 [Compound 5]
## Result 129 mg/mL

====

Assay: PK studies of formulations, plasma by HPLC-MS/MS
Type: in vivo
Settings: bovine, plasma, sc, 1.25 mg/kg, FormC62.5 (propylene glycol, ethanol, Transcutol P), Cattle, 1.25 mg/kg, read-out: Cmax
Description: The following formulations were prepared and administered to animals. Blood samples were collected at pre-defined time points and the amount of compound present in plasma at the time of sampling was determined by HPLC-MS/MS. Pharmacokinetic parameters were then calculated: Cmax, Tmax, Tlast, AUC. [table]
ASSAY METRIC: Cmax (ng/mL)
Give bare numbers, in ng/mL.

## Task Can you share its Cmax? I mean this compound: CCOc1cc(NCCNC(=O)/C=C/C(F)(F)F)ccn1
## Result 46.4

====

Assay: PK studies of formulations, plasma by HPLC-MS/MS
Type: in vivo
Settings: bovine, plasma, sc, 1.25 mg/kg, FormE62.5 (polyethylene glycol 300, ethyl alcohol 96%, water), Cattle, 1.25 mg/kg, read-out: Cmax
ASSAY METRIC: Cmax

## Task Can you share its Cmax? I mean this compound: CCOc1cc(NCCNC(=O)/C=C/C(F)(F)F)ccn1
## Result 45.7 ng/mL

====

Assay: Quantitative determination of solubility of compound 5 (UPLC)
Type: physicochemical
Details: aqueous acid solution (350 mM ethanesulfonic acid in water), 25 °C, aqueous buffer, thermodynamic from solid, Ethanesulfonic acid 350 mM in water, read-out: Solubility T = 3 Days
ASSAY METRIC: solubility at 3 days
In your response, the unit should come after the numeric value.

## Task Can you share its solubility at 3 days? I mean this compound: COc1cc(NCCNC(=O)/C=C/C(C)(F)F)ccn1 [Compound 5]
## Result 167 mg/mL

====

Assay: PK studies of formulations, plasma by HPLC-MS/MS
Assay type: in vivo
Conditions: bovine, plasma, sc, 1.5 mg/kg, FormU100 (L-tartaric acid, propylene glycol 400 mg, benzylalcohol, water), Cattle, 1.5 mg/kg, read-out: Cmax
Procedure: The following formulations were prepared and administered to animals. Blood samples were collected at pre-defined time points and the amount of compound present in plasma at the time of sampling was determined by HPLC-MS/MS. Pharmacokinetic parameters were then calculated: Cmax, Tmax, Tlast, AUC. [table]
ASSAY METRIC: Cmax (ng/mL)
Numbers only, in ng/mL.

## Task Can you share its Cmax? I mean this compound: COc1cc(NCCNC(=O)/C=C/C(C)(F)F)ccn1
## Result 593
